tested on: U251 CNS; test: NCI-60 one-dose screen, 48 h (100 = growth as untreated, 0 = no growth, -100 = all killed); details: 10 µM
Compounds without any hit were thinned out: in the full panel of roughly 83,000, 20% have a hit.
Listed compounds paired with reported growth
Please state the figure in %; there is no need to write the unit.

So the reported growth for COc1ccc(C(=O)COc2cccc(/C=C3\Cc4ccccc4C3=O)c2)cc1 , on U251 CNS, turned out to be 82.6

====

Listed compounds paired with reported growth
test system: SK-MEL-28 melanoma; test: NCI-60 one-dose screen, 48 h (100 = growth as untreated, 0 = no growth, -100 = all killed); settings: 10 µM
About 83,000 compounds went through this panel and 20% of them were active in at least one assay; those are over-represented in the sample as a whole.
Please state the figure in %; there is no need to write the unit.

Worked examples follow.
query smiles	reading unit	growth
CN(C)CCOc1cccc(NC2=C(Cl)C(=O)C(Nc3cccc(OCCN(C)C)c3)=C(Cl)C2=O)c1	%	-63.9
COc1cc2cc(Oc3ccc(NC(=O)c4ccccc4)cc3)c(C)nc2cc1OC	%	92.9
CCOc1ccccc1/C=N/N1CCCCCC1	%	107

Reported growth for CS(=O)(=O)c1nccc(-c2c(-c3cccc(OCc4ccc(F)cc4)c3)nc3sccn23)n1 was 62.8

Reported growth for Clc1nc2ccccc2cc1Cn1nnc(Cc2ccccc2)n1 was 84.7

====

system: SR leukemia; assay: NCI-60 one-dose screen, 48 h (100 = growth as untreated, 0 = no growth, -100 = all killed); settings: 10 µM
This is part of a sample that, as a whole, favours compounds with a hit. Of some 83,000 tested, about 20% had one in any assay.
endpoint: growth (%)
Please state the figure in %; there is no need to write the unit.

molecule	endpoint	quantitative result
CCN1CCN(CCC(=O)Nc2cccc(-n3cc(-c4ccncc4)c(-c4ccc(Cl)c(OC)c4)n3)c2)CC1	growth	-12.3

// next entry
Reported growth for CC(CN(C)C)Oc1ccc(OC(C)CN(C)C)c2c1C(=O)c1ccccc1C2=O (stereo unspecified) was 20.7

====

test system: U251 CNS; test: NCI-60 one-dose screen, 48 h (100 = growth as untreated, 0 = no growth, -100 = all killed); conditions: 10 µM
The panel holds about 83,000 compounds, 20% with a hit somewhere; the sample as a whole holds those more often.
Listed compounds paired with reported growth
Please state the figure in %; there is no need to write the unit.

Worked examples follow.
compound	system name	reading unit	quantitative result
Cc1ccc(C(=O)/C=C/c2ccccc2)s1	U251 CNS	%	95.8
CN1CCN(C2=Nc3ccccc3Oc3ccc(Cl)cc32)CC1	U251 CNS	%	102
CCC(CC)n1c(C)cc(=O)n1C(CC)CC	U251 CNS	%	105
COc1ccc(C2=Cn3c(CCC(=O)c4nc5ccccc5[nH]4)nnc3SC2)cc1	U251 CNS	%	94.1
COC1=CC(=O)OC(c2ccc(OC)cc2)C1 (stereo unspecified)	U251 CNS	%	117

// next entry
Reported growth for CCN(CC)CCOc1ccc2c(c1O)C(=O)c1ccccc1C2=O was 77.3

====

tested on: SK-MEL-2 melanoma; assay: NCI-60 one-dose screen, 48 h (100 = growth as untreated, 0 = no growth, -100 = all killed); details: 10 µM
The panel holds about 83,000 compounds, 20% with a hit somewhere; the sample as a whole holds those more often.
endpoint: growth (%)
Please state the figure in %; there is no need to write the unit.

query smiles	system name	endpoint	reading unit	quantitative result
CS(=O)(=O)c1nccc(-c2c(-c3cccc(O)c3)nc3sccn23)n1	SK-MEL-2 melanoma	growth	%	107
C=C(C)[C@@H]1CC[C@]2(COCCC#N)CC[C@]3(C)[C@H](CC[C@@H]4[C@@]5(C)Cc6c([nH]c7ccccc67)C(C)(C)[C@@H]5CC[C@]43C)[C@@H]12	SK-MEL-2 melanoma	growth	%	110
COc1ccc(-c2nn(-c3cccc(Cl)c3)cc2-c2cc(-c3ccccc3)nc(N)n2)cc1	SK-MEL-2 melanoma	growth	%	83.6

// next entry
Reported growth for COc1ccc(-c2cc(-c3cc(OC)ccc3OC)nc(N)c2C#N)cc1 was 77.1
